- Test system: NCI-H1975
- measurement-description: relative viability (nuclei count vs DMSO), 5 days (fraction); higher = more cells survive
- measurement-setup: first compound 0.8 µM
quantity-measured: relative viability
One number for each entry.

Below are worked cases with known answers.
INSERT INTO results (compound, measurement_target, reported_value) VALUES
  ('Oc1nc(-c2ccc(C(F)(F)F)cc2)nc2c1CSCC2 [XAV939] + O=C(CCCCCCC(=O)Nc1ccccc1)NO [Vorinostat] (partner 1 µM)', 'NCI-H1975', 0.673),
  ('Oc1nc(-c2ccc(C(F)(F)F)cc2)nc2c1CSCC2 [XAV939] + C[C@@H](Oc1cc(-c2cnn(C3CCNCC3)c2)cnc1N)c1c(Cl)ccc(F)c1Cl [Crizotinib] (partner 1 µM)', 'NCI-H1975', 0.919);

Field: next compound
Q: Please tell me: relative viability of Oc1nc(-c2ccc(C(F)(F)F)cc2)nc2c1CSCC2 [XAV939] + CS(=O)(=O)CCNCc1ccc(-c2ccc3ncnc(Nc4ccc(OCc5cccc(F)c5)c(Cl)c4)c3c2)o1 [Lapatinib] (partner 2 µM) , system NCI-H1975?
A: 0.753
